Target: BTK (Homo sapiens, UniProt Q06187)
Sequence (Q06187 402-655 limits assumed): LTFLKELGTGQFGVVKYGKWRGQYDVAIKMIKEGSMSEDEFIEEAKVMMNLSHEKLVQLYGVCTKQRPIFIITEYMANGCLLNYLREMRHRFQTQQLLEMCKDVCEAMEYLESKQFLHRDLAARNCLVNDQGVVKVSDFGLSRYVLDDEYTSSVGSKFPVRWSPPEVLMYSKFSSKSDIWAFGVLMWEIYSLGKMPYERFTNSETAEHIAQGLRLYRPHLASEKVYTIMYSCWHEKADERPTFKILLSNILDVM
Experiment: biochemical
Details: read-out: BTK inhibition (%), 0.75 uM BTK, […] probe 3l, 15 min preincubation
Each record here notes measured inhibition at 10 µM.

Compound	Assayed System	inhibition at 10 µM / %
CCCOC(=O)c1cc(O)c(O)c(O)c1	BTK (Homo sapiens, UniProt Q06187)	11.6
C=C[C@@]1(C)CC(=O)[C@]2(O)[C@@]3(C)[C@@H](O)CCC(C)(C)[C@@H]3[C@H](O)[C@H](OC(C)=O)[C@@]2(C)O1	BTK (Homo sapiens, UniProt Q06187)	-17.1
CCc1cnn2c(NCc3ccc[n+]([O-])c3)cc(N3CCCC[C@H]3CCO)nc12	BTK (Homo sapiens, UniProt Q06187)	-7.6
OCc1ccc(O[C@@H]2O[C@H](CO)[C@@H](O)[C@H](O)[C@H]2O)cc1	BTK (Homo sapiens, UniProt Q06187)	17.9
CC(C)C[C@H](CC(=O)NO)C(=O)N[C@@H](Cc1ccc2ccccc2c1)C(=O)N[C@@H](C)C(=O)NCCN	BTK (Homo sapiens, UniProt Q06187)	18.6
C[C@@H]1[C@H]2c3cc4c(cc3O[C@@]35OCOC3=CC(=O)[C@H](C[C@H]1C)[C@@H]25)OCO4	BTK (Homo sapiens, UniProt Q06187)	33.2
CO[C@H]1C[C@@H]2CC[C@@H](C)[C@@](O)(O2)C(=O)C(=O)N2CCCC[C@H]2C(=O)O[C@H]([C@H](C)C[C@@H]2CC[C@@H](OP(C)(C)=O)[C@H](OC)C2)CC(=O)[C@H](C)/C=C(\C)[C@@H](O)[C@@H](OC)C(=O)[C@H](C)C[C@H](C)/C=C/C=C/C=C/1C	BTK (Homo sapiens, UniProt Q06187)	-16.6
Cc1ccc(S(=O)(=O)c2ccc([N+](=O)[O-])o2)cc1	BTK (Homo sapiens, UniProt Q06187)	-10.8
O=C(O)c1cn(-c2ccc(F)cc2)c2cc(N3CCNCC3)c(F)cc2c1=O	BTK (Homo sapiens, UniProt Q06187)	-3.4
CC12CC3CC(C)(C1)CC(N)(C3)C2	BTK (Homo sapiens, UniProt Q06187)	7.8
CCc1ccc(C(=O)C(C)CN2CCCCC2)cc1 (stereo not shown)	BTK (Homo sapiens, UniProt Q06187)	-24.1
COc1ccc(C[C@@H](C)NC[C@H](O)c2ccc(O)c(NC=O)c2)cc1	BTK (Homo sapiens, UniProt Q06187)	7
CCCCc1nc(C)c(CC(=S)N(C)C)c(=O)n1Cc1ccc(-c2ccccc2-c2nn[nH]n2)cc1	BTK (Homo sapiens, UniProt Q06187)	-6.2
CNC(=O)c1ccc(N2C(=S)N(c3cnc(C#N)c(C(F)(F)F)c3)C(=O)C23CCC3)cc1F	BTK (Homo sapiens, UniProt Q06187)	-3.1
C=CCNC1=C2C[C@@H](C)C[C@H](OC)[C@H](O)[C@@H](C)/C=C(\C)[C@H](OC(N)=O)[C@@H](OC)/C=C\C=C(/C)C(=O)NC(=CC1=O)C2=O	BTK (Homo sapiens, UniProt Q06187)	14
CCOC(=O)c1ccc(O)c(OC)c1	BTK (Homo sapiens, UniProt Q06187)	-7.8
CC(C)NCC(O)c1ccc(NS(C)(=O)=O)cc1 (stereo not shown)	BTK (Homo sapiens, UniProt Q06187)	-16.3
COc1ccc(-c2ccc3c(N4CCOCC4)nc(N4C[C@@H](C)O[C@@H](C)C4)nc3n2)cc1CO	BTK (Homo sapiens, UniProt Q06187)	-12.4
COc1cc(-c2oc3cc(O)cc(O)c3c(=O)c2O)ccc1O	BTK (Homo sapiens, UniProt Q06187)	73.4
CCC(=C(c1ccc(O)cc1)c1ccc(OCCN(C)C)cc1)c1ccccc1	BTK (Homo sapiens, UniProt Q06187)	-11.6
N#CSc1cc(SC#N)c(N)nc1N	BTK (Homo sapiens, UniProt Q06187)	112
OC1CC2CCC(C1)N2 (stereo not shown)	BTK (Homo sapiens, UniProt Q06187)	-1.6
CC(=O)OC(C)(C)CCC(=O)[C@](C)(O)[C@H]1[C@H](O)C[C@@]2(C)[C@@H]3CC=C4[C@@H](C[C@H](O)[C@@H](O)C4(C)C)[C@]3(C)C(=O)C[C@]12C	BTK (Homo sapiens, UniProt Q06187)	-13.8
CCN(C)S(=O)(=O)Nc1ccc(F)c(C(=O)c2c[nH]c3ncc(-c4cnc(C5CC5)nc4)cc23)c1F	BTK (Homo sapiens, UniProt Q06187)	75.9
CO[C@]1(CC[C@@H](C)CO[C@@H]2O[C@H](CO)[C@@H](O)[C@H](O)[C@H]2O)O[C@H]2C[C@H]3[C@@H]4CC=C5C[C@@H](O[C@@H]6O[C@H](CO)[C@@H](O[C@@H]7O[C@@H](C)[C@H](O)[C@@H](O)[C@H]7O)[C@H](O)[C@H]6O[C@@H]6O[C@@H](C)[C@H](O)[C@@H](O)[C@H]6O)CC[C@]5(C)[C@H]4CC[C@]3(C)[C@H]2[C@@H]1C	BTK (Homo sapiens, UniProt Q06187)	-6.2
CC1(C)O[C@@H]2C[C@H]3[C@@H]4C[C@H](F)C5=CC(=O)C=C[C@]5(C)[C@@]4(F)[C@@H](O)C[C@]3(C)[C@]2(C(=O)CO)O1	BTK (Homo sapiens, UniProt Q06187)	-17.1
Cc1onc(-c2c(F)cccc2Cl)c1C(=O)N[C@@H]1C(=O)N2[C@@H]1SC(C)(C)[C@@H]2C(=O)O	BTK (Homo sapiens, UniProt Q06187)	-1.6
COC(=O)c1ccc(O)c(O)c1	BTK (Homo sapiens, UniProt Q06187)	-15.6
Nc1nc2c(ncn2[C@@H]2O[C@H](CO)[C@@H](O)[C@H]2O)c(=O)[nH]1	BTK (Homo sapiens, UniProt Q06187)	0
C=CC(=O)Nc1cc(N2CCN(CC)CC2)ccc1Nc1cc(N(C)C(=O)Nc2c(Cl)c(OC)cc(OC)c2Cl)ncn1	BTK (Homo sapiens, UniProt Q06187)	19.3
CCS(=O)(=O)c1cccc(-c2cc(C(=O)NC3CCN(C)CC3)c(C)c3[nH]c4ncc(C)cc4c23)c1	BTK (Homo sapiens, UniProt Q06187)	93.1
